Just for reference, the Human Domainome abundance scans (Beltran et al. 2025) is where these values come from.

B1: Gamma-crystallin S, residues 96 to 176; numbered along this chain, P22914 (parent)
chain: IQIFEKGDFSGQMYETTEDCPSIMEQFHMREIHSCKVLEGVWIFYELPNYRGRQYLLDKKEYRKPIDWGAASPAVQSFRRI

- Variants of: B1
- Protocol details: abundance fitness (aPCA) (normalised: wild type 0, dead -1); higher = more abundant; growth selection in yeast, the domain comes from the species named
- Test parameters: Homo sapiens
Lab note: anything with abundance fitness at or over -0.01 counts as rule met; the rest go in rule not met.

Query: Please indicate if the recorded abundance fitness for G52W meets or exceeds -0.01.
Result: rule not met

Query: Please indicate if the recorded abundance fitness for H28W meets or exceeds -0.01.
Result: rule met

Query: Please indicate if the recorded abundance fitness for E5V meets or exceeds -0.01.
Result: rule met

Query: Please indicate if the recorded abundance fitness for Y55L meets or exceeds -0.01.
Result: rule not met

Query: Please indicate if the recorded abundance fitness for D19P meets or exceeds -0.01.
Result: rule not met

Query: Please indicate if the recorded abundance fitness for G40S meets or exceeds -0.01.
Result: rule not met

Query: Please indicate if the recorded abundance fitness for M13I meets or exceeds -0.01.
Result: rule met

Query: Please indicate if the recorded abundance fitness for E15M meets or exceeds -0.01.
Result: rule not met
